- assay.comment: Growth inhibition of human OVCAR5 cells assessed as cell growth at 10^-5 M after 48 hrs by sulforhodamine B assay
- Assay type: functional
- particulars: OVCAR-5, 48 h, read-out: Activity
quantity: growth at 10 µM (%)

O=C1/C(=C/c2c(Cl)cccc2Cl)CN(S(=O)(=O)c2ccccc2)C/C1=C\c1c(Cl)cccc1Cl | 103
Cc1ccc(S(=O)(=O)N2C/C(=C\c3c(Cl)cccc3Cl)C(=O)/C(=C/c3c(Cl)cccc3Cl)C2)cc1 | 103
Cc1ccc(S(=O)(=O)N2C/C(=C\c3cc(F)cc(F)c3)C(=O)/C(=C/c3cc(F)cc(F)c3)C2)cc1 | -65
O=C1/C(=C/c2ccc(Cl)cc2Cl)CN(S(=O)(=O)c2ccccc2)C/C1=C\c1ccc(Cl)cc1Cl | -12
